B1: Twister Ribozyme (parent)
chain: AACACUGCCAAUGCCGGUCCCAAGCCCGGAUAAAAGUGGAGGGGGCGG

- Variants of: B1
- measurement-description: self-cleavage, relative activity (ratio to wild type); higher = more cleavage; co-transcriptional
Label scheme, based on self-cleavage: Low (below 0.1), Mid (0.1 to below 0.5), High (0.5 or more)

mutation-notation: C3A A11G
group-label: Mid

mutation-notation: A2C C8A
group-label: Low

mutation-notation: C27G G41U
group-label: Low

mutation-notation: A11U G36A
group-label: High

mutation-notation: C9U A10G
group-label: High

mutation-notation: C3G G17C
group-label: Low

mutation-notation: A2C G7C
group-label: Low

mutation-notation: U31G A34C
group-label: Mid

mutation-notation: A2G G38U
group-label: Mid

mutation-notation: C25A G36C
group-label: Low

mutation-notation: A11G A32U
group-label: High

mutation-notation: U6G C21A
group-label: Low

mutation-notation: A2U G41C
group-label: Mid

mutation-notation: U31C G48A
group-label: High

mutation-notation: A1G G38C
group-label: Mid

mutation-notation: A34G G41U
group-label: Mid

mutation-notation: G36U U37C
group-label: Mid

mutation-notation: C46A G48A
group-label: High

mutation-notation: A23U C26A
group-label: Mid

mutation-notation: C15U G45C
group-label: High

mutation-notation: C9U G47C
group-label: Mid

mutation-notation: C15A C25U
group-label: Mid

mutation-notation: A4U G38C
group-label: Mid

mutation-notation: A35G U37C
group-label: Low

mutation-notation: G28C A40C
group-label: Mid

mutation-notation: A10G A23G
group-label: High

mutation-notation: G39U G42C
group-label: Mid

mutation-notation: G16A G29A
group-label: High

mutation-notation: G38A G45U
group-label: High

mutation-notation: A10C G44U
group-label: High

mutation-notation: C8A U37C
group-label: Mid

mutation-notation: C5G G36C
group-label: High

mutation-notation: C26A G41C
group-label: Mid

mutation-notation: A2G A32G
group-label: Mid

mutation-notation: A4G G38C
group-label: High

mutation-notation: C15A G43A
group-label: Mid

mutation-notation: A2C A40U
group-label: Low

mutation-notation: G41U G43U
group-label: Mid

mutation-notation: C3A C8U
group-label: Mid

mutation-notation: A34U G36A
group-label: Mid

mutation-notation: C8G A22U
group-label: Mid

mutation-notation: U12C A30C
group-label: High

mutation-notation: C21U G39C
group-label: Mid

mutation-notation: C14G C26U
group-label: Low

mutation-notation: C5A
group-label: High

mutation-notation: A11G G42U
group-label: Mid

mutation-notation: A33U C46U
group-label: High

mutation-notation: G13U G28U
group-label: Mid

mutation-notation: U6A G48A
group-label: High
